compound: Cc1nc(CS(=O)(=O)C2=NOC(C)(C)C2F)n(C)n1 (centres unmarked) [8.04]
melting point: 182 to 184 °C
//
compound: Cc1nc(C(Cl)S(=O)(=O)C2=NOC(C)(C)C2F)n(C)n1 (racemic) [8.05]
melting point: 140 to 141 °C
//
compound: CC1(C)ON=C(S(=O)(=O)C(F)(F)c2c(F)cccc2F)C1F (centres unmarked) [Compound No. 1.18]
melting point: 115 to 116 °C
//
compound: Cn1nc(C(F)(F)F)c(CSC2=NOC(C)(C)C2F)c1OCC(F)(F)F (centres unmarked) [Compound No. 2.07]
melting point: 50 to 51 °C
//
compound: Cn1nc(C(F)(F)F)c(CS(=O)(=O)C2=NOC(C)(C)C2Cl)c1OCC(F)(F)F (centres unmarked) [Compound No. 2.15]
melting point: 111 to 112 °C
